# credit: patent EP4635500A1

- Tested on: P. aeruginosa
- PROCEDURE_DETAILS: MIC, broth microdilution, CDC/FDA Antibiotic Resistance Isolate Bank (Example 7, Tables 10, 15)
- Type: cell-based
- TEST_CONDITIONS: Pseudomonas aeruginosa, P. aeruginosa KUB No. 5669, AR Bank # 236; read-out: MIC
Overview of recorded MIC for various compounds
Express it in µg/mL; write the number only.

The following compounds have reported results that may help.
O=C(O)c1cn(C2CC2)c2cc(N3CCNCC3)c(F)cc2c1=O    4
CO/N=C(\C(=O)N[C@@H]1C(=O)N2C(C(=O)[O-])=C(C[n+]3ccn4ncccc43)CS[C@H]12)c1nsc(N)n1    4
NCC[C@H](O)C(=O)N[C@@H]1C[C@H](N)[C@@H](O[C@H]2O[C@H](CN)[C@@H](O)[C@H](O)[C@H]2O)[C@H](O)[C@H]1O[C@H]1O[C@H](CO)[C@@H](O)[C@H](N)[C@H]1O    8
C[C@H]1[C@H](NC(=O)/C(=N\OC(C)(C)C(=O)O)c2csc(N)n2)C(=O)N1S(=O)(=O)O    2

// query MIC value for entry CN(C)c1cc(NC(=O)CNC(C)(C)C)c(O)c2c1C[C@H]1C[C@H]3[C@H](N(C)C)C(O)=C(C(N)=O)C(=O)[C@@]3(O)C(O)=C1C2=O
4

Consider the compound shown here: CC(C)(O/N=C(\C(=O)N[C@@H]1C(=O)N2C(C(=O)[O-])=C(C[N+]3(CCNC(=O)c4ccc(O)c(O)c4Cl)CCCC3)CS[C@H]12)c1csc(N)n1)C(=O)O What is its recorded MIC?
0.25

Recorded MIC of C[C@H]1COc2c(N3CCN(C)CC3)c(F)cc3c(=O)c(C(=O)O)cn1c23 , please.
16
